biological target: ZFP SBS#258 (synthetic); assay: EMSA; conditions: tags: MBP fusion
Sequence (chain, as listed by the source): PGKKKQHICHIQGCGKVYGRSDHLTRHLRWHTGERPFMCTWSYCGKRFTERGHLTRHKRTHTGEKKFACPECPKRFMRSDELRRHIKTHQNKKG
pKd: −log10 of the molar value.
Reported Metric: pKd

{"Binder": "GCGGGCGGG (dsDNA) DNA 1: GCGGGCGGG DNA 2: CCCGCCCGC", "Recorded Result": 7.82}
